- system-tested: BCL2 D103Y (Homo sapiens, UniProt P10415, D103Y)
- assay: TR-FRET competitive binding assay, BCL2 D103Y
- test-parameters: Ki determined from IC50, read-out: TR_FRET EKI_Bcl2 D103Y
pKi: −log10 of the molar value.
assay-metric: pKi

>  <compound>
COc1cccc(CC(=O)N2CCc3cc(-c4cc(C(=O)N(c5ccc(O)cc5)c5cc(C#N)n(C)c5C)c(C)n4C)c(C(=O)N4Cc5ccccc5C[C@H]4C)cc3C2)c1

>  <system-tested>
BCL2 D103Y (Homo sapiens, UniProt P10415, D103Y)

>  <assay-metric>
pKi

>  <observed-value>
9.06

$$$$
>  <compound>
Cc1c(N(C(=O)c2cc(-c3cc4c(cc3C(=O)N3Cc5ccccc5C[C@H]3C)CN(C(=O)Cc3ccc(Cl)cc3F)CC4)n(C)c2C)c2ccc(O)cc2)cc(C#N)n1C

>  <system-tested>
BCL2 D103Y (Homo sapiens, UniProt P10415, D103Y)

>  <assay-metric>
pKi

>  <observed-value>
9.01

$$$$
>  <compound>
Cc1c(N(C(=O)c2cc(-c3cc4c(cc3C(=O)N3Cc5ccccc5C[C@H]3CN3CCCCC3)CN(C(=O)Cc3ccc(OCCN5CCOCC5)cc3F)CC4)n(C)c2C)c2ccc(O)cc2)cc(C#N)n1C [Example 43]

>  <system-tested>
BCL2 D103Y (Homo sapiens, UniProt P10415, D103Y)

>  <assay-metric>
pKi

>  <observed-value>
9.85

$$$$
